ASSAY_TARGET: T1, mouse serum albumin (mouse, UniProt P07724 25-608)
T1 construct: Immobilised on SPR chips; also called mouseSA; MSA
ASSAY_TEXT: SPR Biacore 8K+ SCK, albumin on chip, pH 7.4
EXPERIMENTAL_READOUT: Kd (nM)
State just the number; it will be interpreted in nM.

*Q* Input Alb23 K65A (VHH, VHH alone) VHH: EVQLLESGGGLVQPGGSLRLSCAASGFTFRSFGMSWVRQAPGKGPEWVSSISGSGSDTLYADSVAGRFTISRDNSKNTLYLQMNSLRPEDTAVYYCTIGGSLSRSSQGTLVTVSS , output reported Kd.
*A* 52.3

*Q* Input Alb23 S50A (VHH, VHH alone) VHH: EVQLLESGGGLVQPGGSLRLSCAASGFTFRSFGMSWVRQAPGKGPEWVSAISGSGSDTLYADSVKGRFTISRDNSKNTLYLQMNSLRPEDTAVYYCTIGGSLSRSSQGTLVTVSS , output reported Kd.
*A* 19

*Q* Input Alb23 I51A (VHH, VHH alone) VHH: EVQLLESGGGLVQPGGSLRLSCAASGFTFRSFGMSWVRQAPGKGPEWVSSASGSGSDTLYADSVKGRFTISRDNSKNTLYLQMNSLRPEDTAVYYCTIGGSLSRSSQGTLVTVSS , output reported Kd.
*A* 42.3

*Q* Input Alb23 R104A (VHH, VHH alone) VHH: EVQLLESGGGLVQPGGSLRLSCAASGFTFRSFGMSWVRQAPGKGPEWVSSISGSGSDTLYADSVKGRFTISRDNSKNTLYLQMNSLRPEDTAVYYCTIGGSLSASSQGTLVTVSS , output reported Kd.
*A* 49.7

*Q* Input Alb23 D57A (VHH, VHH alone) VHH: EVQLLESGGGLVQPGGSLRLSCAASGFTFRSFGMSWVRQAPGKGPEWVSSISGSGSATLYADSVKGRFTISRDNSKNTLYLQMNSLRPEDTAVYYCTIGGSLSRSSQGTLVTVSS , output reported Kd.
*A* 50.6

*Q* Input Alb23 G33A/S101A (VHH, VHH alone) VHH: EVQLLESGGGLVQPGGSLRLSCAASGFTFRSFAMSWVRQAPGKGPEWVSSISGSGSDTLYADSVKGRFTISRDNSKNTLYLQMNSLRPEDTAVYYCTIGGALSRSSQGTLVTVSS , output reported Kd.
*A* 118

*Q* Input Alb23 G100A (VHH, VHH alone) VHH: EVQLLESGGGLVQPGGSLRLSCAASGFTFRSFGMSWVRQAPGKGPEWVSSISGSGSDTLYADSVKGRFTISRDNSKNTLYLQMNSLRPEDTAVYYCTIGASLSRSSQGTLVTVSS , output reported Kd.
*A* 87.8

*Q* Input Alb23 S54A (VHH, VHH alone) VHH: EVQLLESGGGLVQPGGSLRLSCAASGFTFRSFGMSWVRQAPGKGPEWVSSISGAGSDTLYADSVKGRFTISRDNSKNTLYLQMNSLRPEDTAVYYCTIGGSLSRSSQGTLVTVSS , output reported Kd.
*A* 25.6

Provenance of the data: patent US20260152573A1
